Taken from patent US20230301300A1.

# System: Poa annua (POAAN)
# Protocol notes: B2 Post-Emergence Efficacy - Test 2
# Assay type: in vivo
# Measurement conditions: 250 g/Ha, 15 days after application, 0-100 scale
Quantity: Herbicidal activity POAAN

> print(dat)
                               query.smiles             system  recorded.measurement
1  Cc1nn(C)c(=O)c(-c2c(F)ccc(Cl)c2CCc2ccc(Cl)cc2)c1OC(=O)C(C)C  Poa annua (POAAN)                    80
2  Cc1nn(C)c(=O)c(-c2c(F)ccc(Cl)c2CCc2ccc(F)cc2)c1OC(=O)C(C)C  Poa annua (POAAN)                    70
3  Cc1nn(C)c(=O)c(-c2c(F)ccc(Cl)c2CCc2ccc(C#N)cc2)c1O  Poa annua (POAAN)                    80
4  Cc1nn(C)c(=O)c(-c2c(F)ccc(Cl)c2CCc2ccc(F)cc2)c1O  Poa annua (POAAN)                    90
5  Cc1nn(C)c(=O)c(-c2c(F)ccc(Cl)c2CCc2ccccc2C(F)(F)F)c1O  Poa annua (POAAN)                    90
6  Cc1nn(C)c(=O)c(-c2c(F)ccc(Cl)c2CCc2ccc(C(F)(F)F)nc2)c1O  Poa annua (POAAN)                    90

----------
Herbicidal activity on a 0-100 scale, ECHCG values by entry
# Test system: Echinochloa crus galli (ECHCG)
# Protocol notes: B2 Post-Emergence Efficacy - Test 2
# Format: in vivo
# Measurement conditions: 30 g/Ha, 15 days after application, 0=no damage, 100=total kill
Quantity: Herbicidal activity on a 0-100 scale, ECHCG

> print(dat)
                               query.smiles  recorded.measurement
1  Cc1nn(C)c(=O)c(-c2c(F)ccc(Cl)c2CCc2ccc(C#N)cc2)c1O                    80
2  Cc1nn(C)c(=O)c(-c2c(F)ccc(Cl)c2CCc2ccc(F)cc2)c1OC(=O)C(C)C                    80
3  Cc1nn(C)c(=O)c(-c2c(F)ccc(Cl)c2CCc2ccccc2C(F)(F)F)c1O                    80
4  Cc1nn(C)c(=O)c(-c2c(F)ccc(Cl)c2CCc2ccc(Cl)cc2)c1OC(=O)C(C)C                    80
5  Cc1nn(C)c(=O)c(-c2c(F)ccc(Cl)c2CCc2ccc(F)cc2)c1O                    80
6  Cc1nn(C)c(=O)c(-c2c(F)ccc(Cl)c2CCc2ccc(C(F)(F)F)nc2)c1O                    90

----------
# Tested on: Amaranthus retoflexus (AMARE)
# Protocol notes: B1 Post-Emergence Efficacy - Test 1
# Type: in vivo
# Measurement conditions: 1000 g/ha, after 13 days, five point scale
Catalogue of compounds with associated percentage damage caused to the plant, AMARE
Quantity: percentage damage caused to the plant, AMARE

> print(dat)
                               query.smiles                         system  recorded.measurement
1  Cc1nn(C)c(=O)c(-c2c(F)ccc(Cl)c2CCc2ccc(C(F)(F)F)cc2)c1O  Amaranthus retoflexus (AMARE)         5 (5=80-100%)
2  Cc1nn(C)c(=O)c(-c2c(F)ccc(Cl)c2CCc2ccc(Cl)cc2)c1OC(=O)C(C)C  Amaranthus retoflexus (AMARE)         5 (5=80-100%)
3  Cc1nn(C)c(=O)c(-c2c(F)ccc(Cl)c2CCc2ccc(Cl)cc2)c1O  Amaranthus retoflexus (AMARE)         5 (5=80-100%)
4  Cc1nn(C)c(=O)c(-c2c(F)ccc(Cl)c2CCc2ccc(F)cc2)c1OC(=O)C(C)C  Amaranthus retoflexus (AMARE)         5 (5=80-100%)
5  Cc1nn(C)c(=O)c(-c2c(F)ccc(Cl)c2CCc2cccnc2)c1O  Amaranthus retoflexus (AMARE)         5 (5=80-100%)
6  Cc1nn(C)c(=O)c(-c2c(F)ccc(Cl)c2/C=C/c2ccccc2)c1O  Amaranthus retoflexus (AMARE)          4 (4=60-79%)
